Molecular target: T1, Human Siglec-15, His Tag (human Siglec-15 full-length extracellular domain linked with His tag) (human, UniProt Q6ZMC9 20-263)
T1 construct: Bought from ACROBiosystems; also called Siglec-15 protein; SG5-H52H3
T1 sequence: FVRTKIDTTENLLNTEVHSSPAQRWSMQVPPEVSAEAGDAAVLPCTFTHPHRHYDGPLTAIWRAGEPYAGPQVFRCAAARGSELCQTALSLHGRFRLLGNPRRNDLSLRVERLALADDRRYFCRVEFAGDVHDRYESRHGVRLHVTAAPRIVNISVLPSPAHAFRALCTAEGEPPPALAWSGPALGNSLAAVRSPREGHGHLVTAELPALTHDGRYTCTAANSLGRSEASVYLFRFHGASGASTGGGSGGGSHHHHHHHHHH
Assay: SPR Biacore, antibody captured by anti-human Fc on CM5, Siglec-15 protein as analyte
MEASURED_PARAMETER: kon (M⁻¹ s⁻¹)
Kindly answer with a numeric value in M⁻¹ s⁻¹, unit omitted.

174C11C9-hH2L2 (antibody, IgG1, V domains shown, Humanized; hIgG1, Kappa) VH: QVQLVQSGAEVKKPGASVKVSCKASGYIFTDYYMNWVRQAPGQGLEWIGVFNPYSGGISYNQKFKGRVTLTVDTSTSTAYMELSSLRSEDTAVYYCARDYYYLSSHGFYALDYWGQGTTVTVSS VL: DIQLTQSPSSLSASVGDRVTITCRASESVDSYGNSFIHWYQQKPGKAPKLLMYRASNLESGIPSRFSGSGSGTDFTLTISSLQPEDFATYYCQQSNEDPLTFGQGTKLEIK | 1.37e+06
21F6C6 chimeric antibody (antibody, human IgG1, V domains shown, also called 21F6C6-mHL) VH: EVMLVESGGGLVKPGGSLKLSCAASGFTFSSYAMSWVRQSPEKRLEWVATISSGGSLIYYPDSVTGRFTISRDNAKSTLYLQMSSLRSEDTAMYYCVRHGYYYGDSTLYYAMDYWGPGTSVTVSS VL: DIVLTQSPASLAVSLGQRATISCKASQSVDYDGDSYMNWYQQKPGQPPKLLIYAASNLESGIPARFSGSGSGTDFTLNIHPVEEEDAATYYCQQSNEAPLTFGAGTKLELK | 5.49e+06

Requested read-out: kon. Entry: 124B11F6-hH2L2 (antibody, IgG1, V domains shown, Humanized; hIgG1, Lambda) VH: QVQLVQSGAEVKKPGASVKVSCKASVFNIKDYYMHWVRQAPGQGLEWIGRIDPEDDKTKYAPKFQGRVTITADTSTSTAYLELSSLRSEDTAVYYCVRGWLGYIMDFWGQGTTVTVSS VL: QLVLTQSPSASASLGASVKLTCTLSSQHSTYTIDWYQQQPEKGPRYVMELKEDGSHSTGDGIPDRFSGSSSGAERYLTISSLQSEDEADYICGVGATIKEQFVYVFGGGTKVTVL 1.11e+06

Requested read-out: kon. Entry: 21F6C6-hH2L4 (antibody, IgG1, V domains shown, Humanized; hIgG1, Kappa) VH: EVQLVESGGGLVKPGGSLRLSCAASGFTFSSYAMSWVRQAPGKGLEWVATISSGGSLIYYADSVTGRFTISRDNAKNTLYLQMNSLRAEDTAVYYCVRHGYYYGDSTLYYAMDYWGQGTTVTVSS VL: DIQMTQSPSSLSASVGDRVTITCRASQSVDYDGDSYMNWYQQKPGKAPKLLIYAASNLQSGVPSRFSGSGSGTDFTLTISSLQPEDFATYYCQQSNEAPLTFGQGTKLEIK 4.84e+06

Requested read-out: kon. Entry: 21F6C6-hH2L3 (antibody, IgG1, V domains shown, Humanized; hIgG1, Kappa) VH: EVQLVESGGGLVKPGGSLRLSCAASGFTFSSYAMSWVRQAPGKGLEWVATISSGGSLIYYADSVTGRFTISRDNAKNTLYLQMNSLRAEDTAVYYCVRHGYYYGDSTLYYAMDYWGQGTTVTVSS VL: DIQLTQSPSSLSASVGDRVTITCRASQSVDYDGDSYMNWYQQKPGKAPKLLIYAASNLESGVPSRFSGSGSGTDFTLTISSLQPEDFATYYCQQSNEAPLTFGQGTKLEIK 4.87e+06
